Target: T1, Full-length human CD96 on CHO-S cells (human, UniProt P40200 22-585)
T1 construct: also called CD96-CHOs; hCD96-CHOs
T1 sequence: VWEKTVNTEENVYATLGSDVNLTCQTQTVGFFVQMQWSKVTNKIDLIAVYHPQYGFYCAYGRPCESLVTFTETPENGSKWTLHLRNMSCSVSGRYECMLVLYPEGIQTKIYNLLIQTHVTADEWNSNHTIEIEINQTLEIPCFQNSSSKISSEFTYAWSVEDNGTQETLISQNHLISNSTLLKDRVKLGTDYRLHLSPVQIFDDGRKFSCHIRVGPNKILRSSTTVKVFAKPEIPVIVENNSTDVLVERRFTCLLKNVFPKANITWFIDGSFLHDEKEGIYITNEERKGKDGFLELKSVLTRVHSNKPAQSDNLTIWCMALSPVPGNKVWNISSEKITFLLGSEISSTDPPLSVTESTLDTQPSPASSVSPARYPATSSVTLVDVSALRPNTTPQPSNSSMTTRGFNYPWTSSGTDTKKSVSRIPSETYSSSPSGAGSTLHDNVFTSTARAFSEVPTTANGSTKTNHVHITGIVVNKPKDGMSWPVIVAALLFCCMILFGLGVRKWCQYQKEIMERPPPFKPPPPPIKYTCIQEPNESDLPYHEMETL
Assay: cell ELISA, fixed CD96-overexpressing CHO-S cells
pEC50: −log10 of the molar value.
endpointLabel: pEC50

INSERT INTO measurements (binder, measurednumber) VALUES
  ('ch1721 (antibody, human IgG4 S228P, kappa, V domains shown, also called chimeric antibody corresponding to m1721) VH: QVQLKESGPGLVAPSQSLSITCTVSGFSLISYGVNWVRQPPGKGLEWLGVIWGDGSTNYHSALISRLSISKDDSKSQVFLNLNSLQTDDTATYYCAKNYFYGSRYGYAMDSWGQGISVTVSS VL: DIQMTQSPASLSAAVGETVTITCRASENIYSSLAWYQQKQGKSPQLLVYNAKTLIETVASRFSGSGSGTQYSLKINSLQPEDFGSFYCQHHYGTPYTFGGGTKLEIKR', 10.44),
  ('h1722-017 (antibody, V domains shown) VH: EVQLVQSGAEVKKPGSSVKVSCKASGGTFSDYWMHWVRQAPGQGLEWIGMLHPKSGTTSFNEKFKIRVTITADKSTSTAYMELSSLRSEDTAVYYCASDYSGPFAYWGQGTLVTVSS VL: DIQLTQSPSSLSASVGDRVTITCSASSSVNYIHWYQQKPGKAPKRWIFDTSKLASGVPSRFSGSGSGTDYTLTISSLQPEDFATYYCQQWRSNPLTFGQGTKLEIK', 10.28),
  ('h1722-006 (antibody, V domains shown, Only variable regions are tied to this name) VH: EVQLVQSGAEVKKPGSSVKVSCKASGGTFSDYWMHWVRQAPGQGLEWIGMLHPNSGTTSFNEKFKIRVTITADKSTSTAYMELSSLRSEDTAVYYCASDYSGPFAYWGQGTLVTVSS VL: DIQMTQSPSSLSASVGDRVTITCSASSSVNYIHWYQQKPGKAPKRWIYDTSKLASGVPSRFSGSGSGTDFTLTISSLQPEDFATYYCQQWRSNPLTFGQGTKLEIK', 10.37);

# credit: patent US20200347130A1
